Listed here: items and their measured growth.
Tested on: SK-OV-3 ovarian
assayDetails: NCI-60 one-dose screen, 48 h (100 = growth as untreated, 0 = no growth, -100 = all killed)
conditionLabel: 10 µM unless noted
About 83,000 compounds went through this panel and 20% of them were active in at least one assay; those are over-represented in the sample as a whole.

[
  {
    "molecule": "O=C(c1ccc(O)cc1)C1[C@H](c2ccc(Cl)cc2)[C@@H](c2ccccc2)NC12C(=O)Nc1ccccc12 (stereo not given in full)",
    "growth, %": 43.7
  },
  {
    "molecule": "CC(C)(C)OC(=O)N1CCC2(CC1)Oc1ccccc1[C@H]1CC(c3ccc(Br)cc3)=NN12",
    "growth, %": 79.1
  },
  {
    "molecule": "CN(C)CCCc1ccc(Nc2cnn(C)c(=O)c2Cl)cc1",
    "growth, %": 131
  },
  {
    "molecule": "C=CCSc1nnc(-c2ccc(-c3nc4ccc(Cl)cc4[nH]3)cc2)o1",
    "growth, %": 88.8
  },
  {
    "molecule": "Nc1cc2ccccc2c(=O)n1NC(=O)c1ccccc1",
    "growth, %": 93.5
  }
]

###

Test system: HCT-15 colon
assayDetails: NCI-60 one-dose screen, 48 h (100 = growth as untreated, 0 = no growth, -100 = all killed)
conditionLabel: 10 µM
This is part of a sample that, as a whole, favours compounds with a hit. Of some 83,000 tested, about 20% had one in any assay.

[
  {
    "chemSmiles": "CC/C(=C(/c1ccc(O)cc1)c1ccc(OCCN(C)C(=O)COCCOCCNC(=O)c2ccc3c(c2)CN([C@@H]2CCC(=O)NC2=O)C3=O)cc1)c1ccccc1",
    "growth / %": 106
  },
  {
    "chemSmiles": "CC/C(=C(\\c1ccc(O)cc1)c1ccc(OCCN(C)C(=O)CCOCCNC(=O)c2ccc3c(c2)CN([C@@H]2CCC(=O)NC2=O)C3=O)cc1)c1ccccc1",
    "growth / %": 103
  },
  {
    "chemSmiles": "CC/C(=C(/c1ccc(O)cc1)c1ccc(OCCN(C)C(=O)CCOCCNC(=O)Cc2ccc3c(c2)CN([C@@H]2CCC(=O)NC2=O)C3=O)cc1)c1ccccc1",
    "growth / %": 100
  },
  {
    "chemSmiles": "CC/C(=C(/c1ccc(O)cc1)c1ccc(OCCN(C)C(=O)COCCOCCNC(=O)Cc2ccc3c(c2)CN([C@@H]2CCC(=O)NC2=O)C3=O)cc1)c1ccccc1",
    "growth / %": 105
  }
]

###

Test system: MDA-MB-435 melanoma
assayDetails: NCI-60 one-dose screen, 48 h (100 = growth as untreated, 0 = no growth, -100 = all killed)
conditionLabel: 10 µM unless noted
About 83,000 compounds went through this panel and 20% of them were active in at least one assay; those are over-represented in the sample as a whole.
measuredAttribute: growth (%)

[
  {
    "compound": "COc1ccc(C(=O)c2cc(C(C)=O)c3c(C)cc(C)cn23)cc1",
    "measuredAttribute": "growth",
    "outputUnit": "%",
    "recordedNumber": 49.1
  },
  {
    "compound": "CC[C@]12C=CCN3CC[C@@]4(c5ccc(OC)cc5N(C)[C@H]4[C@@](O)(C(=O)OC)[C@@H]1OC(=O)CCC[P+](c1ccc(OC)cc1)(c1ccc(OC)cc1)c1ccc(OC)cc1)[C@@H]32",
    "measuredAttribute": "growth",
    "outputUnit": "%",
    "recordedNumber": -76.9
  },
  {
    "compound": "CN(C)CCOc1ccc(C(=O)C2[C@H](c3ccc(Cl)cc3)[C@@H](c3ccccc3)NC23C(=O)Nc2ccc(Cl)cc23)cc1 (some centres undefined)",
    "measuredAttribute": "growth",
    "outputUnit": "%",
    "recordedNumber": -96.2
  },
  {
    "compound": "COc1ccc2c(c1)C(Sc1ccc(F)cc1)c1c(nc(N)c(C#N)c1N)O2 (centres undefined)",
    "measuredAttribute": "growth",
    "outputUnit": "%",
    "recordedNumber": 91
  },
  {
    "compound": "Cc1ccc(C2CC(c3ccc(NC(=O)Nc4ccccc4)cc3)=NN2c2ccc(S(C)(=O)=O)cc2)cc1 (centres undefined)",
    "measuredAttribute": "growth",
    "outputUnit": "%",
    "recordedNumber": -7.07
  },
  {
    "compound": "Cc1ccc(C(=O)C[n+]2cccc3c4ccccc4ccc32)cc1",
    "measuredAttribute": "growth",
    "outputUnit": "%",
    "recordedNumber": 13.5
  },
  {
    "compound": "CN1CCN(C(=O)Oc2cc3c(c4ccccc24)[C@H](CCl)CN3C(=O)c2cc3cc(OCCCN4CCC4)ccc3[nH]2)[C@H]2CSSC[C@H]21",
    "measuredAttribute": "growth",
    "outputUnit": "%",
    "recordedNumber": -70.2
  },
  {
    "compound": "O=C(Nc1ccc(Cl)c(C(F)(F)F)c1)N1CCN(c2cc(-c3cn(-c4ccccc4)nc3-c3cccc(O)c3)ccn2)CC1",
    "measuredAttribute": "growth",
    "outputUnit": "%",
    "recordedNumber": -65.4
  },
  {
    "compound": "CCOC(=O)c1ccc(NC(=S)NC(=O)c2ccc(NC(=O)C(C)C)cc2OC)cc1",
    "measuredAttribute": "growth",
    "outputUnit": "%",
    "recordedNumber": 33.7
  },
  {
    "compound": "CCOC(=O)c1ccc(NC(=S)NC(=O)c2cccc(NC(=O)c3ccc(C)cc3)c2)cc1",
    "measuredAttribute": "growth",
    "outputUnit": "%",
    "recordedNumber": 86.1
  },
  {
    "compound": "Cc1nc(N)ncc1-c1ccc2ncnc(N3CCc4cc(F)c(Cl)cc43)c2c1",
    "measuredAttribute": "growth",
    "outputUnit": "%",
    "recordedNumber": 94.6
  },
  {
    "compound": "COC(=O)c1cccc(Oc2ccc(NC(=O)Nc3cc(C(F)(F)F)ccc3F)cc2)c1",
    "measuredAttribute": "growth",
    "outputUnit": "%",
    "recordedNumber": 92.4
  },
  {
    "compound": "O=C1Nc2cc(-c3ccc(NS(=O)(=O)c4ccc(-c5ccccc5)cc4)cc3)ccc2/C1=C/c1ccc[nH]1",
    "measuredAttribute": "growth",
    "outputUnit": "%",
    "recordedNumber": 40.3
  },
  {
    "compound": "Nc1cc(-c2c[nH]c3ccc(F)cc23)nc2cc(-c3c[nH]c4ccccc34)nn12",
    "measuredAttribute": "growth",
    "outputUnit": "%",
    "recordedNumber": 4.81
  },
  {
    "compound": "C=CC(=O)N1CCN(c2ccc3nc4c(nc3c2C(F)(F)F)C(=O)c2ncccc2C4=O)CC1",
    "measuredAttribute": "growth",
    "outputUnit": "%",
    "recordedNumber": -71.1
  },
  {
    "compound": "COc1ccc(-c2nc3ccc(-c4nnc(SCc5ccccc5)o4)cc3[nH]2)cc1",
    "measuredAttribute": "growth",
    "outputUnit": "%",
    "recordedNumber": -29.5
  },
  {
    "compound": "CN(C)c1ccc(/C=C/c2n(Cc3ccc4ccccc4c3)c3ccccc3[n+]2Cc2ccc3ccccc3c2)cc1",
    "measuredAttribute": "growth",
    "outputUnit": "%",
    "recordedNumber": -94.7
  },
  {
    "compound": "O=C(c1ccc(Cl)cc1)C1[C@H](c2ccccc2Cl)[C@@H](c2ccccc2)NC12C(=O)Nc1ccccc12 (some centres undefined)",
    "measuredAttribute": "growth",
    "outputUnit": "%",
    "recordedNumber": -82.8
  },
  {
    "compound": "CCCCC[C@@H]1C/C=C(\\C)[C@@H](O)C(C)(C)C(=O)[C@@H](C)/C=C(\\C)[C@@H]2C[C@H](O)C[C@](O)(CC(=O)O1)O2",
    "measuredAttribute": "growth",
    "outputUnit": "%",
    "recordedNumber": 24
  }
]
